PROTOCOL NOTES: inhibitors of Toxoplasma growth in IFN-γ-primed HeLa – cell-based, ME49Luc, luciferase, 72 h, dose response (AID 1259418)
EXPERIMENTAL CONTEXT: T. gondii ME49Luc in IFN-y HeLa, active compounds read low, -100% = high-dose IFN-γ control wells; at 19.5 µM unless noted
About 840 (25%) of roughly 3,400 compounds were called active. Another 11% or so got no clear call; they are omitted. Not all results are given here. Potency and affinity values are given separately.
REPORTED PROPERTY: max activity

SMILES STRING	max activity
Cc1nc(-c2cc(S(=O)(=O)N3CCC(Cc4ccccc4)CC3)c(C)s2)sc1C	9.1% [at 0.16 µM] (inactive)
Cc1ccc(-c2coc(-c3ccc(NC(=O)Nc4ccccc4)cc3)n2)c(C)c1	15.7% [at 0.16 µM] (inactive)
Cc1nc(CCNC(=O)C2CCN(S(=O)(=O)c3cccc(Cl)c3C)CC2)cs1	-10.4% [at 5 µM] (inactive)

Kindly review the next compound as well.
Q: Item `CCc1ccccc1S(=O)(=O)N1CCc2nc(-c3ccccc3)sc2C1` has what recorded max activity?
Ans: 115% [at 10 µM] (inactive)

---

PROTOCOL NOTES: inhibitors of Toxoplasma growth in IFN-γ-primed HeLa – cell-based, ME49Luc, luciferase, 72 h, dose response (AID 1259418)
EXPERIMENTAL CONTEXT: T. gondii ME49Luc in IFN-y HeLa, active compounds read low, -100% = high-dose IFN-γ control wells; at 19.5 µM unless noted
Screen size: about 3,400 compounds; about 840 (25%) were called active. Another 11% or so got no clear call; they are omitted. A selection follows. Entries with a potency or affinity are not part of this list.
REPORTED PROPERTY: max activity

SMILES STRING	max activity
COc1cccc(C(=O)Nc2ccc(-c3nc(-c4ccc(C)cc4)co3)cc2)c1	73.1% (inactive)
COc1cccc(C(=O)Nc2ccc(-c3nc(-c4ccccc4)co3)cc2)c1	-14.9% [at 10 µM] (inactive)
Cc1ccc(Cn2c(=O)c3nn(C)cc3n3c(=O)n(Cc4nc(-c5ccc(C)cc5)oc4C)nc23)cc1	11.5% [at 2.6 µM] (inactive)

Q: Item `COc1ccc(CC(=O)Nc2ccc(-c3nc(-c4ccc(C)cc4)co3)cc2)cc1` has what recorded max activity?
Ans: 16.4% [at 0.35 µM] (inactive)

Q: Item `COc1ccc2c(c1)NC1(CCN(C(=O)CCC3CCCC3)CC1)c1cccn1-2` has what recorded max activity?
Ans: 10.2% [at 0.16 µM] (inactive)

Q: Item `COC(=O)CC(=O)Nc1ccc(-c2nc(-c3ccc(C)cc3C)co2)cc1` has what recorded max activity?
Ans: 87.6% (inactive)

Q: Item `COc1ccc(-c2nc(Nc3ccc(OC)c(Cl)c3)c3ccccc3n2)cc1` has what recorded max activity?
Ans: 16.4% [at 2.6 µM] (inactive)

Q: Item `COc1ccc(-c2ccc(OCCNC(=O)c3sc(-c4ccccc4)nc3C)nn2)cc1` has what recorded max activity?
Ans: 13.2% [at 0.16 µM] (inactive)

Q: Item `COc1cccc(NC(=O)CN2CCC3(CC2)N=C(c2ccc(F)cc2)C(=O)N3)c1` has what recorded max activity?
Ans: -15.6% [at 0.68 µM] (inactive)

---

In this section, each of the compounds is paired with its reported max activity.
PROTOCOL NOTES: inhibitors of Toxoplasma growth in IFN-γ-primed HeLa – cell-based, ME49Luc, luciferase, 72 h, dose response (AID 1259418)
EXPERIMENTAL CONTEXT: T. gondii ME49Luc in IFN-y HeLa, active compounds read low, -100% = high-dose IFN-γ control wells; at 19.5 µM unless noted
Hit rate of the full screen: of about 3,400 compounds, about 840 (25%) were called active. Roughly 11% stayed inconclusive and do not appear here. These entries were drawn from the full list. Potency and affinity values are given separately.

As a guide, the following entries are already answered.
COMPOUND	REPORTED PROPERTY	RESULT
O=C(CC1Nc2c3ccccc3nc(=S)n2C1=O)NCc1ccc(Cl)cc1 (stereo not given)	max activity	15.8% (inactive)
Cc1ccc2c(c1C)-n1cccc1C1(CCN(C(=O)CC(C)C)CC1)N2	max activity	7.04% [at 0.68 µM] (inactive)
Cc1ccc(C)c(CSc2ccc(-c3sc(-c4ccc(F)cc4)nc3C)nn2)c1	max activity	-9.1% [at 5 µM] (inactive)
O=C(Cc1cccc(F)c1)Nc1ccc(-c2nc(-c3ccccc3)co2)cc1	max activity	16.9% [at 2.6 µM] (inactive)
CCCCCNC(=O)CC1Nc2c3ccccc3nc(=S)n2C1=O (stereo not given)	max activity	-10.3% [at 10 µM] (inactive)

Q: Item `CC[C@H](C(=O)N1CCCC[C@H]1C(=O)O[C@H](CCc1ccc(OC)c(OC)c1)c1cccc(OCC(=O)NCCNC(=O)COc2cccc([C@@H](CCc3ccc(OC)c(OC)c3)OC(=O)[C@@H]3CCCCN3C(=O)[C@@H](CC)c3cc(OC)c(OC)c(OC)c3)c2)c1)c1cc(OC)c(OC)c(OC)c1` has what recorded max activity?
Ans: -14% [at 5 µM] (inactive)

Q: Item `CCCN(CCC)c1nc(-c2ccc(Cl)cc2)nc2ccccc12` has what recorded max activity?
Ans: 25.7% (inactive)

Q: Item `COc1ccc(OC)c(NC(=O)N2CCc3nc(-c4ccccc4)sc3C2)c1` has what recorded max activity?
Ans: 6.12% (inactive)

Q: Item `COc1ccc(-c2nc(Nc3ccc(F)cc3F)c3ccccc3n2)cc1` has what recorded max activity?
Ans: 10.1% (inactive)

Q: Item `O=C(C[C@H]1CC[C@H]2[C@@H](COC[C@@H](O)CN2C(=O)c2cc(Cl)cc(Cl)c2)O1)N1CCc2ccccc2C1` has what recorded max activity?
Ans: 26.3% [at 10 µM] (inactive)

---

PROTOCOL NOTES: inhibitors of Toxoplasma growth in IFN-γ-primed HeLa – cell-based, ME49Luc, luciferase, 72 h, dose response (AID 1259418)
EXPERIMENTAL CONTEXT: T. gondii ME49Luc in IFN-y HeLa, active compounds read low, -100% = high-dose IFN-γ control wells; at 19.5 µM unless noted
Hit rate of the full screen: of about 3,400 compounds, about 840 (25%) were called active. Not shown: some 11% with an inconclusive outcome. The list is a sample of the results. Potency and affinity values are given separately.
In this section, each of the compounds is paired with its reported max activity.

As a guide, the following entries are already answered.
COMPOUND	max activity
O=C(CCC1N=C2c3ccccc3N=C(SCc3ccccc3F)N2C1=O)NC1CCCCC1 (stereo not given)	96.1% (inactive)
Cc1ccc(-c2coc(-c3ccc(NC(=O)Nc4ccc(F)c(Cl)c4)cc3)n2)cc1	49.3% (inactive)
N#Cc1ccc(-c2ccc(C3[C@@H]4CN(S(=O)(=O)c5ccc(F)cc5)C[C@H]3N4)cc2)cc1 (stereo not given in full)	13.9% (inactive)
COc1ccc(-c2nc(NCc3cccc(Cl)c3)c3ccccc3n2)cc1	-12% [at 0.35 µM] (inactive)

Kindly review the next compound as well.
Q: Item `CCc1ccc(NC(=O)N2CCc3nc(-c4ccc(OC)c(OC)c4)sc3C2)cc1` has what recorded max activity?
Ans: 7.81% [at 0.16 µM] (inactive)
